Assay: qHTS screen for small molecules that induce genotoxicity in human embryonic kidney (HEK293T) cells expressing luciferase-tagged ELG1; further: nearly all actives have a fitted effect of over 60% in size
Settings: HEK293T ELG1-luciferase reporter, luminescence, 16 h; series mostly up to 46 µM
The whole screen tested about 330,000 compounds, of which about 4,200 (1.3%) were called active. About 6% were inconclusive and are not listed. The call rests on the fitted dose curve; in most records, active means well fitted activation curve with a large enough effect; inconclusive means small, poorly fitted or top-dose-only effect; inactive means no such curve, though single readings can be large or run the other way. For the sample, actives were picked, then their nearest neighbours and some compounds at random.
Output constraint: value belongs to active, inactive

c1ccc(Nc2nc(-c3ccncc3)cs2)nc1    active
O=C(COC(=O)CN1C(=O)C2CCCCC2C1=O)Nc1ccc(F)c(F)c1F (stereo unspecified)    inactive
Clc1ccc(-c2csc(-c3ccncc3)n2)cc1    inactive
O=c1c2c(nc3nc[nH]n13)CCC2    inactive
COc1ccccc1N=Cc1c(O)c2ccccc2oc1=O    inactive
O=C(Nc1cccc(S(=O)(=O)NC2=NCCC2)c1)c1ccc(F)cc1F    inactive

Lab note: next compound to report on.
Prompt line: What outcome does the record of this test show for CCNC(=O)N(CC)C[C@H]1N[C@@](CC)(C(=O)OC)[C@H]2C(=O)N(Cc3ccccc3)C(=O)[C@@H]12 ?
Response line: inactive
